Reference source: patent US10220072B2

Tested on: 10 human tumor xenograft-derived cell suspensions or tumor cell lines of renal cancer
Test: Clonogenic assay: ex vivo colony formation (anchorage independent growth) in semi-solid medium
Assay type: cell-based
Details: Homo sapiens; mean across 10 renal cancer tumor models; test concentrations 0.0698 mM to 3 mM; read-out: second mean IC50 value printed in brackets after the mean relative IC50
readout type: IC50 (mM)
Please give a number only; it is taken to be in mM.

*Q* Name the reported IC50 value associated with the compound Nc1ccc(O)c(C(=O)O)c1 [Mesalamine, 5-amino-2-hydroxybenzoic acid]
*A* 1.26
